- Tested on: MCF7
- test.method.notes: Cytotoxicity against human MCF7 cells assessed as cell survival after 24 hrs by SRB assay
- Assay type: functional, cell-based
- assay.context: MCF7, 24 h
reported.property: IC50 (µM)
Kindly provide the numeric value in µM only, without the unit symbol.

## Input Note IC50 for the compound shown: `O=C(/C=C/c1ccccc1)c1ccc2ccccc2c1`
## Output 28

----------
- target.entity: Nuclear factor erythroid 2-related factor 2 (Mus musculus) (UniProt Q60795)
- Sequence (whole entry): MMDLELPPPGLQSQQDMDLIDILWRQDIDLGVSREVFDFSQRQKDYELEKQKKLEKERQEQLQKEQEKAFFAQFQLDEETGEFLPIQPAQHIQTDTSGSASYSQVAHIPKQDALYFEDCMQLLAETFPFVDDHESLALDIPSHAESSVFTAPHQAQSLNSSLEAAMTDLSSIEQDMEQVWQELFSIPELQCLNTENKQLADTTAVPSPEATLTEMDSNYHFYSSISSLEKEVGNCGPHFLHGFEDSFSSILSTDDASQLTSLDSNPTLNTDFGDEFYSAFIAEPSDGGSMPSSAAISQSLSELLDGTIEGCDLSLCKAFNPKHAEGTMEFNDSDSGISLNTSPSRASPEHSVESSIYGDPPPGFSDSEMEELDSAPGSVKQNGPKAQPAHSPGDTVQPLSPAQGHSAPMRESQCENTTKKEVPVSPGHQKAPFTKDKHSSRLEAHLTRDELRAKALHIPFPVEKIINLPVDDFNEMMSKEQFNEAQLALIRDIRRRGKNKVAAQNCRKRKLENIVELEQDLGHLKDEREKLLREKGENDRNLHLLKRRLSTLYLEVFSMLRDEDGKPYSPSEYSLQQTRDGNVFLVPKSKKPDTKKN
- test.method.notes: Activation of Nrf2 in wild type mouse Hepa1c1c7 cells cytosolic fraction assessed as induction of quinone reductase activity at 10 uM using 2,6-DCIP as substrate in presence of NADH incubated for 48 hrs measured for 1 min relative to control
Classification field: enter class 1 for fold change (FC) values not below 1, class 0 for values below it.

## Input Dear colleague, could you confirm whether `O=C(/C=C/c1cccc(Br)n1)c1ccccc1O` has fold change (FC) at or above 1?
## Output class 1

## Input Does the reported fold change (FC) for `O=C(/C=C/c1ccc2ccccc2c1)c1ccccc1O` fall at or above the 1 mark?
## Output class 1

## Input Identify whether the reported fold change (FC) of the following compound is 1 or greater: `O=C(/C=C/c1cccc2ccccc12)c1ccccc1`
## Output class 0

## Input Is fold change (FC) for `O=C(/C=C/c1ccnc2ccccc12)c1cccc2ccccc12` at or above 1?
## Output class 1

## Input Dear colleague, could you confirm whether `O=C(CC(CC(=O)c1ccccc1)c1cccc2ccccc12)c1ccccc1` has fold change (FC) at or above 1?
## Output class 0
